- experimental protocol: Mutagenicity in Salmonella typhimurium TA1535 assessed as mutagenicity index at 50 to 500 ug/plate preincubated for 30 mins followed by top agar addition and measured after 48 hrs in presence of liver S9 fraction by Ames test
- Format: toxicity, subcellular
- condition parameters: salmonella enterica subsp. enterica serovar typhimurium, s9, 48 h
Measured Activity index, listed per entry for reference.

compound	quantity kind	endpoint value
Cc1cccc(C)c1OCC(=O)N[C@H](C)CO	Activity index	0.7 to 1.7
CCC(O)CNC(=O)COc1c(C)cccc1C (centres undefined)	Activity index	0.7 to 1.7
CC[C@@H](CO)NC(=O)COc1c(C)cccc1C	Activity index	0.7 to 1.7

## Input Given Cc1cccc(C)c1OCC(=O)NCC(O)c1ccccc1 (centres undefined) , respond with its Activity index.
## Output 0.7 to 1.7

* * *

- experimental protocol: Neurotoxicity in ip dosed CF-1 mouse by rotarod test
- Format: toxicity, organism-based
- condition parameters: in vivo
quantity kind: TD50 (mg/kg)
Give the value, in units of mg/kg, as a plain number.

## Input Given Cc1cccc(C)c1OCC(=O)N[C@H](C)CO , respond with its TD50.
## Output 140

* * *

- experimental protocol: Neurotoxicity in Sprague-Dawley rat at 100 mg/kg, ip measured after 2 hrs by rotarod test
- Format: toxicity, organism-based
- condition parameters: Sprague-Dawley, in vivo
quantity kind: TD50 at 2 h (mg/kg)
Give the value, in units of mg/kg, as a plain number.

## Input Given NC(=O)N1c2ccccc2C=Cc2ccccc21 [CARBAMAZEPINE] , respond with its TD50 at 2 h.
## Output 364

* * *

- Test system: Mus musculus
- experimental protocol: Anticonvulsant activity in CF-1 mouse model of subcutaneous pentylenetetrazole-induced seizure assessed as reduction in convulsions at 100 mg/kg, ip measured at 4 hrs post dose
- Assay type: functional, organism-based
Calls of active or inactive are those of the source. The calls are words filed in the database; no cut-off is given here.
quantity kind: Activity

compound	Activity
Cc1cccc(C)c1OCC(=O)NCC(O)c1ccccc1 (stereo not given)	inactive
Cc1cccc(C)c1OCC(=O)NCC(C)O (stereo not given)	inactive
CNC(=O)C(C)NC(=O)COc1c(C)cccc1C (stereo not given)	inactive
CCC(O)CNC(=O)COc1c(C)cccc1C (stereo not given)	inactive
Cc1cccc(C)c1OCC(=O)NC(C)C(=O)O (stereo not given)	inactive
CCC(NC(=O)COc1c(C)cc(C)cc1C)C(N)=O (stereo not given)	inactive

## Input Given Cc1cccc(C)c1OCC(=O)NCCc1ccccc1 , respond with its Activity.
## Output inactive

## Input Given Cc1cccc(C)c1OCC(=O)N[C@@H](C)CO , respond with its Activity.
## Output inactive

## Input Given Cc1cc(C)c(OCC(=O)NCC(O)c2ccccc2)c(C)c1 (stereo not given) , respond with its Activity.
## Output inactive

## Input Given CCC(CO)NC(=O)COc1c(C)cc(C)cc1C (stereo not given) , respond with its Activity.
## Output inactive

## Input Given Cc1cccc(C)c1OCC(=O)N[C@H](C)C(N)=O , respond with its Activity.
## Output inactive

## Input Given CC[C@@H](CO)NC(=O)COc1c(C)cccc1C , respond with its Activity.
## Output inactive

## Input Given Cc1cccc(C)c1OCC(=O)N[C@@H](C)C(=O)O , respond with its Activity.
## Output inactive

## Input Given Cc1cccc(C)c1OCC(=O)NC(C)CO (stereo not given) , respond with its Activity.
## Output inactive

## Input Given Cc1cccc(C)c1OCC(=O)N[C@H](C)CO , respond with its Activity.
## Output inactive
